Reported IC50 values for a set of compounds
biological target: human Nav 1.8 (Homo sapiens); assay: E-VIPR assay detecting and measuring Nav inhibition properties; assay type: cell-based; conditions: HEK cells expressing a truncated form of human Nav 1.8; compound numbers without "*" (not marked as run in the presence of human serum); read-out: measured IC50 value in the E-VIPR Assay
Sequence (Q9Y5Y9 126-399 limits assumed): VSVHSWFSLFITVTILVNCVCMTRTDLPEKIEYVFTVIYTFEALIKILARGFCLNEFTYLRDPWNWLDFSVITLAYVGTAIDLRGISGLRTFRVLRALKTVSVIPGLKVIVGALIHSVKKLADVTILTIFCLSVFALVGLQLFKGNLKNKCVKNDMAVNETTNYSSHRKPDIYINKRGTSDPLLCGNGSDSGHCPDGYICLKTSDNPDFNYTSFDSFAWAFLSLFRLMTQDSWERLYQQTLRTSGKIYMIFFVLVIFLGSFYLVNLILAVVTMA
Sequence (Q9Y5Y9 660-890 limits assumed): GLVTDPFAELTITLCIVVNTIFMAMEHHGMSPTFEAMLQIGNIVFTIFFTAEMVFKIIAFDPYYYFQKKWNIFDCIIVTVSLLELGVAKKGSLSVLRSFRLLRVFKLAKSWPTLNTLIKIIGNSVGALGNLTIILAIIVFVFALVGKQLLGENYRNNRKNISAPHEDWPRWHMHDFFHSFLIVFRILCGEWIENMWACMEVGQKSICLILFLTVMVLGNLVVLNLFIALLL
Sequence (Q9Y5Y9 1148-1722 limits assumed): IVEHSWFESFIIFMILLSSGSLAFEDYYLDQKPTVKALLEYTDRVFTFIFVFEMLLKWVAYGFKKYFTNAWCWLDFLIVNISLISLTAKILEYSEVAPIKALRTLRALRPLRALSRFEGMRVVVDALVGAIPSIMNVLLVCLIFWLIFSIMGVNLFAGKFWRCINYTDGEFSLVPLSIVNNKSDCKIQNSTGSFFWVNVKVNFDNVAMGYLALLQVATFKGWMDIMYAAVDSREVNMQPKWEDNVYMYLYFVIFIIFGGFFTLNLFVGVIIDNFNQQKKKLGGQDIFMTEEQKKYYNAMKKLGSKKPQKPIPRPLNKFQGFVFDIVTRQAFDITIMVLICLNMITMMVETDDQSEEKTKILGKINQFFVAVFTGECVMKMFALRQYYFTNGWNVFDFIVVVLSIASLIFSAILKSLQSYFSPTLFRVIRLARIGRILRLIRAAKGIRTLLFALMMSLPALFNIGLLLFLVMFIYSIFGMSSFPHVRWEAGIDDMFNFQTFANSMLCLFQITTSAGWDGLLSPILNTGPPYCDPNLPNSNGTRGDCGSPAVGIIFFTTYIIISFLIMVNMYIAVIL
Assay readout: IC50

compound="COc1c([C@H]2[C@H](C(=O)Nc3ccnc(C(=O)N4CCNCC4)c3)O[C@@](C)(C(F)(F)F)[C@H]2C)ccc(F)c1F [Compound 224]" experimental_system="human Nav 1.8 (Homo sapiens)" assay_readout=IC50 recorded_result="< 0.01 µM"
compound="COc1c([C@H]2[C@H](C(=O)Nc3ccnc(C(=O)N4C[C@H]5C[C@@H]4CN5)c3)O[C@@](C)(C(F)(F)F)[C@H]2C)ccc(F)c1F [Compound 254]" experimental_system="human Nav 1.8 (Homo sapiens)" assay_readout=IC50 recorded_result="< 0.01 µM"
compound="CC1C(c2ccc(F)c(F)c2OCC2CCC2O)C(C(=O)Nc2ccnc(C(N)=O)c2)OC1(C)C(F)(F)F (stereo not drawn) [Compound 98]" experimental_system="human Nav 1.8 (Homo sapiens)" assay_readout=IC50 recorded_result="0.01 to 0.1 µM"
compound="C[C@H]1[C@@H](c2ccc(F)c(F)c2OCCN2CCC3(COC3)C2)[C@H](C(=O)Nc2ccnc(C(N)=O)c2)O[C@@]1(C)C(F)(F)F [Compound 127]" experimental_system="human Nav 1.8 (Homo sapiens)" assay_readout=IC50 recorded_result="< 0.01 µM"
compound="C[C@H]1[C@@H](c2ccc(F)c(F)c2OCC2(F)COC2)[C@H](C(=O)Nc2ccnc(C(N)=O)c2)O[C@@]1(C)C(F)(F)F [Compound 64]" experimental_system="human Nav 1.8 (Homo sapiens)" assay_readout=IC50 recorded_result="< 0.01 µM"
compound="COc1c([C@H]2[C@H](C(=O)Nc3ccnc(C(=O)N4CCNC[C@H]4C)c3)O[C@@](C)(C(F)(F)F)[C@H]2C)ccc(F)c1F [Compound 235]" experimental_system="human Nav 1.8 (Homo sapiens)" assay_readout=IC50 recorded_result="< 0.01 µM"
compound="C[C@H]1[C@@H](c2ccc(F)c(F)c2OCCN=S(C)(C)=O)[C@H](C(=O)Nc2ccnc(C(N)=O)c2)O[C@@]1(C)C(F)(F)F [Compound 130]" experimental_system="human Nav 1.8 (Homo sapiens)" assay_readout=IC50 recorded_result="< 0.01 µM"
compound="C[C@H]1[C@@H](c2ccc(F)c(F)c2OCCN2C[C@@H]3C[C@H]2CO3)[C@H](C(=O)Nc2ccnc(C(N)=O)c2)O[C@@]1(C)C(F)(F)F (relative stereo) [Compound 46]" experimental_system="human Nav 1.8 (Homo sapiens)" assay_readout=IC50 recorded_result="< 0.01 µM"
compound="CC(=O)COc1c([C@H]2[C@H](C(=O)Nc3ccnc(C(N)=O)c3)O[C@@](C)(C(F)(F)F)[C@H]2C)ccc(F)c1F [Compound 79]" experimental_system="human Nav 1.8 (Homo sapiens)" assay_readout=IC50 recorded_result="0.01 to 0.1 µM"
compound="C[C@H]1[C@@H](c2ccc(F)c(F)c2OCCN2CC(C)(O)C2)[C@H](C(=O)Nc2ccnc(C(N)=O)c2)O[C@@]1(C)C(F)(F)F [Compound 122]" experimental_system="human Nav 1.8 (Homo sapiens)" assay_readout=IC50 recorded_result="0.01 to 0.1 µM"
compound="C[C@@H](CO)COc1c([C@H]2[C@H](C(=O)Nc3ccnc(C(N)=O)c3)O[C@@](C)(C(F)(F)F)[C@H]2C)ccc(F)c1F [Compound 81]" experimental_system="human Nav 1.8 (Homo sapiens)" assay_readout=IC50 recorded_result="< 0.01 µM"
compound="COc1c([C@H]2[C@H](C(=O)Nc3ccnc(C(=O)N4CC[C@@H](O)C4)c3)O[C@@](C)(C(F)(F)F)[C@H]2C)ccc(F)c1F [Compound 220]" experimental_system="human Nav 1.8 (Homo sapiens)" assay_readout=IC50 recorded_result="< 0.01 µM"
